# System: 596521-263-R-J1-PDC complex spheroids, viability % of control
# Method summary: Anticancer human tumor 596521-263-R-J1-PDC patient-derived soft tissue sarcoma cell line growth inhibition [GQUAD]
# Condition info: second compound 10 µM; first compound 0.00316 µM; active compounds read low
Readout kind: viability, T/C (%)

compound="Cn1ncnc1[C@H]1c2n[nH]c(=O)c3cc(F)cc(c23)N[C@@H]1c1ccc(F)cc1 + CN(C)c1ccc(Nc2c3ccc(NC(=O)CCN4CCCC4)cc3nc3cc(NC(=O)CCN4CCCC4)ccc23)cc1" readout_kind="viability, T/C" reported_result=58.9
compound="CC[C@@]1(O)C(=O)OCc2c1cc1n(c2=O)Cc2cc3c(CN(C)C)c(O)ccc3nc2-1 + Cc1[nH]c2ccc(F)cc2c1-c1nc2c3cccnc3c3ncccc3c2[nH]1" readout_kind="viability, T/C" reported_result=89.9
compound="Cc1[nH]c2ccccc2c1CCNCc1ccc(/C=C/C(=O)NO)cc1 + CN(C)c1ccc(Nc2c3ccc(NC(=O)CCN4CCCC4)cc3nc3cc(NC(=O)CCN4CCCC4)ccc23)cc1" readout_kind="viability, T/C" reported_result=53.7

* * *

# Test system: 596521-263-R-J1-PDC complex spheroids, viability % of control
# Method summary: Anticancer human tumor 596521-263-R-J1-PDC cell line growth inhibition [GQUAD];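 further: spheroids exposed to drugs for 7 days before viability reading; 100% = DMSO vehicle control viability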
# Condition info: second compound 0.316 µM; first compound 3.16 µM; active compounds read low
Catalogue of viability, T/C readings, one per entry.
Readout kind: viability, T/C

compound="COc1cccc2c1C(=O)c1c(O)c3c(c(O)c1C2=O)CC(O)(C(=O)CO)CC3OC1CC(N)C(O)C(C)O1 (stereo not drawn) + CN(C)c1ccc(Nc2c3ccc(NC(=O)CCN4CCCC4)cc3nc3cc(NC(=O)CCN4CCCC4)ccc23)cc1" readout_kind="viability, T/C" reported_result=29.6%
compound="COc1cccc2c1C(=O)c1c(O)c3c(c(O)c1C2=O)CC(O)(C(=O)CO)CC3OC1CC(N)C(O)C(C)O1 (stereo not drawn) + Cc1[nH]c2ccc(F)cc2c1-c1nc2c3cccnc3c3ncccc3c2[nH]1" readout_kind="viability, T/C" reported_result=27.1%
compound="C=CC(=O)N1CCN(c2nc(=O)n(-c3c(C)ccnc3C(C)C)c3nc(-c4c(O)cccc4F)c(F)cc23)C(C)C1 (stereo not drawn) + Cc1cnc(CNC(=O)c2c(=O)c3ccc(N4CCCN(C)CC4)nc3n3c2sc2ccccc23)cn1" readout_kind="viability, T/C" reported_result=92.4%

* * *

# Tested on: 596521-263-R-J1-PDC complex spheroids, viability % of control
# Method summary: Anticancer human tumor 596521-263-R-J1-PDC cell line growth inhibition [GQUAD];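 further: spheroids exposed to drugs for 7 days before viability reading; 100% = DMSO vehicle control viability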
# Condition info: second compound 0.316 µM; first compound 0.316 µM; active compounds read low
Catalogue of viability, T/C readings, one per entry.
Readout kind: viability, T/C (%)

compound="COc1ccc([C@@H](O)c2cc(-c3ncnc4cc(N5CCOCC5)ccc34)c(F)cc2Cl)nn1 + Cc1cnc(CNC(=O)c2c(=O)c3ccc(N4CCCN(C)CC4)nc3n3c2sc2ccccc23)cn1" unit_of_measure=% reported_result=63.6
compound="Cc1[nH]c2ccccc2c1CCNCc1ccc(/C=C/C(=O)NO)cc1 + Cc1[nH]c2ccc(F)cc2c1-c1nc2c3cccnc3c3ncccc3c2[nH]1" unit_of_measure=% reported_result=94.9
compound="COc1cc(C2c3cc4c(cc3C(OC3OC5COC(C)OC5C(O)C3O)C3COC(=O)C23)OCO4)cc(OC)c1O (stereo not given) + Cc1[nH]c2ccc(F)cc2c1-c1nc2c3cccnc3c3ncccc3c2[nH]1" unit_of_measure=% reported_result=87.3
compound="Cc1[nH]c2ccccc2c1CCNCc1ccc(/C=C/C(=O)NO)cc1 + Cc1cnc(CNC(=O)c2c(=O)c3ccc(N4CCCN(C)CC4)nc3n3c2sc2ccccc23)cn1" unit_of_measure=% reported_result=2.74
compound="CC(=O)O[C@H]1C(=O)[C@@]2(C)[C@H]([C@H](OC(=O)c3ccccc3)[C@]3(O)C[C@H](OC(=O)[C@H](O)[C@@H](NC(=O)c4ccccc4)c4ccccc4)C(C)=C1C3(C)C)[C@]1(OC(C)=O)CO[C@@H]1C[C@@H]2O + CN(C)c1ccc(Nc2c3ccc(NC(=O)CCN4CCCC4)cc3nc3cc(NC(=O)CCN4CCCC4)ccc23)cc1" unit_of_measure=% reported_result=25.2
